Assay Target: Stb4 (UniProt P50104)
Sequence (P50104 whole entry): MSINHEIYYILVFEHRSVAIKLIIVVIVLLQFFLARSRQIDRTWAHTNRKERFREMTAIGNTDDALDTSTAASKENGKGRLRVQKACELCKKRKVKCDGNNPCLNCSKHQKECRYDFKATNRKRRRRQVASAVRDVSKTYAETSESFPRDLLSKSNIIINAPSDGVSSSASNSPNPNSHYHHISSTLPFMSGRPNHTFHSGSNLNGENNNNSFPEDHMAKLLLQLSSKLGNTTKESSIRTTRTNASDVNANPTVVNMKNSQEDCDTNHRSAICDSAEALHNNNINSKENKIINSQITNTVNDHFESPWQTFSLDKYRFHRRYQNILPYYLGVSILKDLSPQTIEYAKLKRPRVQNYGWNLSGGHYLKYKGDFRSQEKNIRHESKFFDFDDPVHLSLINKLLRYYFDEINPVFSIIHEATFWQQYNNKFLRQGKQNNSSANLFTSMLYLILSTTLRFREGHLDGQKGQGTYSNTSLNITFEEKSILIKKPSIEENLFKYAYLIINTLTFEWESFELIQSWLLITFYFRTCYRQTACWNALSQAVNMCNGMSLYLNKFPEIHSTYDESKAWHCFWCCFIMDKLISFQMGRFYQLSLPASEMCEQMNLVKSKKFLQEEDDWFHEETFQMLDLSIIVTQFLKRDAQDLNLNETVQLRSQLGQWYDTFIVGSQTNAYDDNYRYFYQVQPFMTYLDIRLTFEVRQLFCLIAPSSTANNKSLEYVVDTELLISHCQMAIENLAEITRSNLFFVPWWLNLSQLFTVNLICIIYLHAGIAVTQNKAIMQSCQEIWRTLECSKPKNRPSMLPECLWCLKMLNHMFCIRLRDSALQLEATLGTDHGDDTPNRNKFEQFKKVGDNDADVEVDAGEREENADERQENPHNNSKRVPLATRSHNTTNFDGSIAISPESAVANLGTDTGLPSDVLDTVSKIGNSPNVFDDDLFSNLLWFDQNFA
Assay Name: PBM E-score (8-mer binding enrichment) (E-score (-0.5 to 0.5)); higher = stronger / more preferred TF binding
Assay Conditions: protein concentration: 200 nM; construct: GST-DNA-binding domain
The full ranking holds about 33,000 sequences; the median of “E-score (-0.5 to 0.5)” is about -0.056, and the highest 2% start at about 0.38. The sample holds the highest values, similar sequences and a random draw of the others, so the mix is not that of the screen.
Assay Metric: PBM E-score
Enter a number only.

1. AGGATAGA ... -0.107
2. GTCATTTA ... -0.171
3. CAGATAGC ... -0.0171
4. ACATCACC ... 0.0212

Exam item: Find the recorded PBM E-score belonging to "ACTCCGGA" and report it.
Marked response: 0.411

Exam item: Another sequence to check: "AAGAGGCA"
Marked response: -0.186

Exam item: Another sequence to check: "GCACGGAC"
Marked response: 0.13

Exam item: Another sequence to check: "CGCTATAC"
Marked response: 0.0197

Exam item: Another sequence to check: "ATTGGGTG"
Marked response: -0.0143

Exam item: Another sequence to check: "GCTCGGAC"
Marked response: 0.391

Exam item: Another sequence to check: "CGGATAGC"
Marked response: 0.394

Exam item: Another sequence to check: "CGTGCCGA"
Marked response: 0.405

Exam item: Another sequence to check: "ACATCCGC"
Marked response: 0.382

Exam item: Another sequence to check: "ACAGGTGG"
Marked response: -0.226

Exam item: Another sequence to check: "AGCCGATA"
Marked response: 0.344

Exam item: Another sequence to check: "CGTGCCCA"
Marked response: 0.00213

Exam item: Another sequence to check: "ACTGGTGA"
Marked response: -0.226

Exam item: Another sequence to check: "AGTGCCGG"
Marked response: 0.301

Exam item: Another sequence to check: "GCGCCGCA"
Marked response: 0.0423

Exam item: Another sequence to check: "AGCCGACC"
Marked response: 0.293

Exam item: Another sequence to check: "AGCCGAGC"
Marked response: 0.448

Exam item: Another sequence to check: "ACTCCGGC"
Marked response: 0.281

All values here come from the supplement of paper PMC3334620.
